tested on: KASUMI-10; assay: selective drug sensitivity score (sDSS, relative to normal bone marrow) (sDSS (score)); higher = more potent and effective on the cell line relative to normal bone marrow cells; conditions: 72 h;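 further: ALL cell lines in 384-well plates, five doses spanning 10,000-fold, each plate scaled between vehicle and 100 µmol/L benzalkonium chloride controls, sDSS an adapted area-under-curve metric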
endpoint.label: selective drug sensitivity score

molecule	measured
C[C@@H]1CN(C(=O)c2ccc(NC(=O)c3cc(O[C@H](C)c4c(Cl)ccc(F)c4Cl)c(N)nn3)cc2)C[C@H](C)N1 [Ensartinib] (top concentration 1000 nM)	-2.84
COCC[n+]1c2c(n(Cc3cnccn3)c1C)C(=O)c1ccccc1C2=O [Sepantronium_bromide] (top concentration 10000 nM)	18.6
CC(O)c1cc(C(=O)N[C@@H](C)Cn2ccc(-c3ccc(C#N)c(Cl)c3)n2)n[nH]1 (stereo partly drawn) [ODM-201] (top concentration 2500 nM)	-0.28
